Cited source: the supplement of paper PMC10065799

- Test system: c-Abl (mouse);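 further: 11-residue human phosphosite peptides and single-mutation variants displayed on the E. coli surface, counted by deep sequencing, each peptide's frequency after selection divided by its frequency in the unselected input library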;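 further: frequency after pTyr selection over input frequency; kinase dosed for 20-30% of maximal phosphorylation in three min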
- procedure.text: phosphorylation enrichment, bacterial display (enrichment ratio); higher = better substrate or ligand; peptides without Tyr show the background
attribute.measured: phosphorylation enrichment
Answer using only a numeral; do not append any unit.

Look over these answered cases.
INSERT INTO assay_data (chain_sequence, attribute_measured, result) VALUES
  ('QMVGMYASFYM [AVPR2_Y124_S127F]', 'phosphorylation enrichment', 3.61),
  ('RRAVKYLQMVG [AVPR2_Y117_C112R]', 'phosphorylation enrichment', 0.961),
  ('RLAQRYLIWEC [SCN5A_Y694]', 'phosphorylation enrichment', 0.86),
  ('RSRSSYTHSLN [MYCT1_Y116_G119S]', 'phosphorylation enrichment', 0.97),
  ('VRRRSYSAGNA [KANK1_Y324_K321R]', 'phosphorylation enrichment', 0.613);

Quick one: phosphorylation enrichment for LVKDPYVMFPQ [PLEKHG2_Y489_P484L] ?
0.943

Note, next up: RKLVDYDSARH [BIN1_Y150]
0.916

Note, next up: QDEHGYISLCF [HSPB1_Y133_R136L]
2.42

Note, next up: RKVLVYDKLNV [ROR2_Y624_N620K]
0.854
